# Test system: 475296-252-R-J1-PDC spheroid viability;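 note: spheroids exposed to agents for seven days before readout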
# ASSAY TEXT: Anticancer human tumor 475296-252-R-J1-PDC patient-derived rectal carcinoma cell line growth inhibition [PI3K]
# MEASUREMENT CONDITIONS: second compound 0.01 µM; first compound 0.1 µM; active compounds read low; spheroids with HUVEC and MSC
PARAMETER MEASURED: viability, T/C (%)
Record the value in %, omitting the unit from your answer.

COMPOUND	viability, T/C [%]
CC(C)NCC(C(=O)N1CCN(c2ncnc3c2C(C)CC3O)CC1)c1ccc(Cl)cc1 (centres undefined) + CC(Nc1ccc2c(c1)OCCn1cc(N3C(=O)OCC3C(F)F)nc1-2)C(N)=O	78.5

Exercise: So what's the measured viability, T/C for this one? Cn1nccc1Nc1nccc(-c2ccn(C(CO)c3ccc(Cl)c(F)c3)c(=O)c2)n1 (centres undefined) + CC(Nc1ccc2c(c1)OCCn1cc(N3C(=O)OCC3C(F)F)nc1-2)C(N)=O
Solution: 97.9

Exercise: So what's the measured viability, T/C for this one? C#Cc1c(F)ccc2cc(O)cc(-c3ncc4c(N5CC6CCC(C5)N6)nc(OCC56CCCN5CC(F)C6)nc4c3F)c12 (centres undefined) + CC(Nc1ccc2c(c1)OCCn1cc(N3C(=O)OCC3C(F)F)nc1-2)C(N)=O
Solution: 83

Exercise: So what's the measured viability, T/C for this one? CNC(=O)c1ccc(N2C(=S)N(c3ccc(C#N)c(C(F)(F)F)c3)C(=O)C2(C)C)cc1F + CC(Nc1ccc2c(c1)OCCn1cc(N3C(=O)OCC3C(F)F)nc1-2)C(N)=O
Solution: 90.4

Exercise: So what's the measured viability, T/C for this one? Cn1ncc(Cl)c1-c1cc(C(=O)NC(CN)Cc2cccc(F)c2)sc1Cl (centres undefined) + CC(Nc1ccc2c(c1)OCCn1cc(N3C(=O)OCC3C(F)F)nc1-2)C(N)=O
Solution: 78.6

Exercise: So what's the measured viability, T/C for this one? CNC(=O)c1ccc(N2C(=S)N(c3ccc(C#N)c(C(F)(F)F)c3)C(=O)C2(C)C)cc1F + COc1c(OCCCN2CCOCC2)ccc2c3n(c(=NC(=O)c4cnc(N)nc4)nc12)CCN3
Solution: 94.7

Exercise: So what's the measured viability, T/C for this one? CCN1CCN(Cc2ccc(Nc3ncc(F)c(-c4cc(F)c5nc(C)n(C(C)C)c5c4)n3)nc2)CC1 + CC(Nc1ccc2c(c1)OCCn1cc(N3C(=O)OCC3C(F)F)nc1-2)C(N)=O
Solution: 85.1

Exercise: So what's the measured viability, T/C for this one? CCCS(=O)(=O)Nc1ccc(F)c(C(=O)c2c[nH]c3ncc(-c4ccc(Cl)cc4)cc23)c1F + COc1c(OCCCN2CCOCC2)ccc2c3n(c(=NC(=O)c4cnc(N)nc4)nc12)CCN3
Solution: 99.5

Exercise: So what's the measured viability, T/C for this one? C=CC(=O)N1CCN(c2nc(=O)n(-c3c(C)ccnc3C(C)C)c3nc(-c4c(O)cccc4F)c(F)cc23)C(C)C1 (centres undefined) + COc1c(OCCCN2CCOCC2)ccc2c3n(c(=NC(=O)c4cnc(N)nc4)nc12)CCN3
Solution: 99.2

Exercise: So what's the measured viability, T/C for this one? CC(Cn1ccc(-c2ccc(C#N)c(Cl)c2)n1)NC(=O)c1cc(C(C)O)[nH]n1 (centres undefined) + COc1c(OCCCN2CCOCC2)ccc2c3n(c(=NC(=O)c4cnc(N)nc4)nc12)CCN3
Solution: 101

Hey, just so you know, these numbers are from PubChem BioAssay AID1963980.
